# procedure summary: AUC in Sprague-Dawley rat at 10 mg/kg, po
# Assay type: ADME, organism-based
# Set-up: dose 10 mg/kg, route oral
# condition description: plasma
endpoint name: AUC (µM·h)
Just the number please, in µM·h, no unit attached.

Request: GET /values?readout=AUC&item= "Cc1ccc(NC(=O)Nc2cc(C(F)(F)F)ccc2F)cc1Nc1ccc2c(c1)NC(=O)/C2=C\c1ccc[nH]1"
Result: 6.84

---

# procedure summary: Half life in Sprague-Dawley rat at 10 mg/kg, po
# Type: ADME, organism-based
# Parameters: dose 10 mg/kg, route oral
# condition description: in vivo
endpoint name: half-life (h)
Reply numerically in h, unit not repeated.

Request: Return reported half-life; argument: "Cc1ccc(NC(=O)Nc2cc(C(F)(F)F)ccc2F)cc1Nc1ccc2c(c1)NC(=O)/C2=C\c1ccc[nH]1"
Result: 7.1

---

# procedure summary: Half life in Sprague-Dawley rat at 3 mg/kg, iv
# Type: ADME, organism-based
# Design: dose 3 mg/kg, route intravenous
# condition description: in vivo
endpoint name: half-life (h)
Write the value in h as a bare number.

Request: # input compound: "Cc1ccc(NC(=O)Nc2cc(C(F)(F)F)ccc2F)cc1Nc1ccc2c(c1)NC(=O)/C2=C\c1ccc[nH]1" ; wanted: its half-life
Result: 7.5
